Values compiled from patent US20260132129A1.

- TARGET_UNDER_TEST: PI3Kα H1047R (T47D cells) (Homo sapiens, UniProt P42336, H1047R)
- Construct: endogenous in cells; host or cells: T47D cells
- Sequence (P42336 whole entry H1047R): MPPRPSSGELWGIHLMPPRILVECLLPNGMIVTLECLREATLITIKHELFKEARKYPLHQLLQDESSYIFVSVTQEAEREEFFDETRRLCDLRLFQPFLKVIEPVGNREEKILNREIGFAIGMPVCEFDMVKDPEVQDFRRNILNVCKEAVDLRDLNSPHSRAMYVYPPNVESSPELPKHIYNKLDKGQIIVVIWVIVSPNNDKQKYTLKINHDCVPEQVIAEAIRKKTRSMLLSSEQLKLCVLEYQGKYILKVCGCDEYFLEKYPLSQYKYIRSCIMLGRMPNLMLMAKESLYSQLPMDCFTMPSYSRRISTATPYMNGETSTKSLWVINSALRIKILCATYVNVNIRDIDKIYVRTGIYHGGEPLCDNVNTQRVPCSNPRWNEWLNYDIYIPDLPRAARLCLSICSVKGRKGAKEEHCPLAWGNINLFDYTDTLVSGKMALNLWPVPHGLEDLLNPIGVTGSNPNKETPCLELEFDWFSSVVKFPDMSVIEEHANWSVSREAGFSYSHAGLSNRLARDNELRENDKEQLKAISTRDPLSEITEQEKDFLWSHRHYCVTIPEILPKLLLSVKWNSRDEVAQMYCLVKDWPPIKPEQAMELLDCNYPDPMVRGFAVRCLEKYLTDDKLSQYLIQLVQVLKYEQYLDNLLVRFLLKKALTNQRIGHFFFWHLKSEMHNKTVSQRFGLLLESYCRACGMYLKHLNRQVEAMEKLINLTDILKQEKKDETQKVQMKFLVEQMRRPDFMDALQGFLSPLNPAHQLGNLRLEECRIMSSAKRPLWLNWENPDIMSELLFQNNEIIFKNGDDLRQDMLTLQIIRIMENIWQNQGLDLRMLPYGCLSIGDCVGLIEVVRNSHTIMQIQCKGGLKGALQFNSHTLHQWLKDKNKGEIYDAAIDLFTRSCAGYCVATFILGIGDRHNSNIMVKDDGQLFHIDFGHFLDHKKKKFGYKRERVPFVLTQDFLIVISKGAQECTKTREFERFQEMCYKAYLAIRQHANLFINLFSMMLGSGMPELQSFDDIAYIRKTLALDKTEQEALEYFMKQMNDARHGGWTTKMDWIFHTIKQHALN
- Sequence (P27986 whole entry partner): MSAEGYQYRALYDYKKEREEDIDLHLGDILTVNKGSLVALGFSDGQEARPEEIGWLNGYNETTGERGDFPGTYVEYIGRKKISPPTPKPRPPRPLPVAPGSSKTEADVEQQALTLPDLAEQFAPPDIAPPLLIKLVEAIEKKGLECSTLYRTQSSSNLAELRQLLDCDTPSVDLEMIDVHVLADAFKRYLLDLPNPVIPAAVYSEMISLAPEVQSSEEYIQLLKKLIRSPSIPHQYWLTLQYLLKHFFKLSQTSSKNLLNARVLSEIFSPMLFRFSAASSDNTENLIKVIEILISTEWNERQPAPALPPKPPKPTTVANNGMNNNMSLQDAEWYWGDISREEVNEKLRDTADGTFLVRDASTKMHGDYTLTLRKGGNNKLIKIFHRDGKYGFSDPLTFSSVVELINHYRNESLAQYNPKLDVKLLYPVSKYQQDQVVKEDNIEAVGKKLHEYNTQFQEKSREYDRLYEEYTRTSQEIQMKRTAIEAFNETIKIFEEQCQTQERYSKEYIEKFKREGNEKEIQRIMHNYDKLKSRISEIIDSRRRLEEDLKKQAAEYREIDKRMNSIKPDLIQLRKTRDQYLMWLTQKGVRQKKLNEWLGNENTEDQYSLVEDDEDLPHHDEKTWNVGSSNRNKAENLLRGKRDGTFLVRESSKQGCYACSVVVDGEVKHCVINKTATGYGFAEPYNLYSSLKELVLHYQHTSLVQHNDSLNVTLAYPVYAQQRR
- MEASUREMENT_NOTES: PI3Kα cellular assay: pAKT HTRF in T47D cells after EGF stimulation
- Assay type: cell-based
- MEASUREMENT_SETUP: selectivity of T47D (H1047R) over SKBR3 (WT) pAKT IC50
PARAMETER_MEASURED: T47D pAKT S473 HTRF IC50 (H1047R): T47D (H1047R) selectivity over SKBR3 (WT)

Guide cases for T47D pAKT S473 HTRF IC50 (H1047R): T47D (H1047R) selectivity over SKBR3 (WT), answers given:
• Cc1cc([C@@H](C)Nc2ccccc2S(N)(=O)=O)c2nc(-c3cnc4c(c3)c(C)nn4C3CC3)c(C)c(=O)n2c1 [Compound 991] = A (A denotes >20-fold)
• Cc1cc([C@@H](C)N[C@H](C(=O)O)c2ccccc2)c2nc(N3CCOCC3)cc(=O)n2c1 [Compound 648] = C (C denotes ≤5-fold)
• Cc1cc(C(C)Nc2ccccc2S(N)(=O)=O)c2nc(-c3cnc4c(c3)c(C)nn4C3CC3)c(C)c(=O)n2c1 (stereo not shown) [Compound 990] = A (A denotes >20-fold)
• Cc1cc(C(C)Nc2ccccc2C(=O)O)c2nc(N3C[C@@H](C)O[C@@H](C)C3)c(C)c(=O)n2c1 (stereo partly shown) [Compound 915] = A (A denotes >20-fold)
• CC(=O)NS(=O)(=O)c1ccccc1N[C@@H](C)c1cc(C)cn2c(=O)c(C)c(-c3ccc4c(c3)CC(F)(F)C4)nc12 [Compound 1040] = C (C denotes ≤5-fold)

Turning now to a further compound:
# compound Cc1cc([C@@H](C)Nc2ccccc2C(=O)O)c2nc(N3CCC(C)(C)CC3)cc(=O)n2c1 [Compound 727] ; its T47D pAKT S473 HTRF IC50 (H1047R): T47D (H1047R) selectivity over SKBR3 (WT) = C (C denotes ≤5-fold)
